Biological target: T1, mpl-Ig (UniProt P40238 26-491)
T1 construct: Used as conditioned medium of mpl-Ig-transfected 293 cells, captured on anti-human IgG Fc plates; also called Mpl (Mpl/TPO ELISA); not shown: Ig part, captured by rabbit anti-human IgG Fc
T1 sequence (looked up): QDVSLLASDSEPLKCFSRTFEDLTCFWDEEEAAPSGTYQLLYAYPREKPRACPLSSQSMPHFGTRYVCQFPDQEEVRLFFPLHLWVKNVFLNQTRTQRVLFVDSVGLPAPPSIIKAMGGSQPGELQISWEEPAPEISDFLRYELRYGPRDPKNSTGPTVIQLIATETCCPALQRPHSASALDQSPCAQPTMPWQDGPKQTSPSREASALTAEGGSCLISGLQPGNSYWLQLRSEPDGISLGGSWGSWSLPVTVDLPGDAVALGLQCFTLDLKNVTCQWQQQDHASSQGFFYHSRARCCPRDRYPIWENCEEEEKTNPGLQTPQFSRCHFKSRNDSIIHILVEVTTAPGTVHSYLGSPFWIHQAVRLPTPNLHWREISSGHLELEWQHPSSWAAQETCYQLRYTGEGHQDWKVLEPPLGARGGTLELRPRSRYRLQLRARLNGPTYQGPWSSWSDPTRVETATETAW
Assay: Mpl/TPO ELISA: inhibition of biotinylated TPO binding to captured mpl-Ig
READOUT_LABEL: pIC50
pIC50 is a log-scale quantity: -log10 of the concentration expressed in molar.

[Q] Fill blank: measured pIC50 of the binder 12E10 Fab′2 (other, F(ab′)2 with leucine zipper, expressed in E. coli from pXCA740; copies: 2 + 2) VH: QVQLQQSGPGLVKPSETLSLTCTVSGDSISSYYWSWIRQPPGKGLEWIGYIYYSGSTNYNPSLKSRVTISVDTSKSQFSLKLSSVTAADTAVYYCARGRYFDVWGRGTMVTVSS VL: SYVLTQPPSVSGSPGQSITISCTGTSSDVGGYNYVSWYQQHPGKAPKLMIYEGSKRPSGVSNRFSGSKSGNTASLTISGLQAEDEADYYCSSYTTRSTRVFGGGTKLTVL is ____.
[A] 6.19
